- ASSAYED SYSTEM: human complement factor D purified from serum (human, UniProt P00746 26-253); further: test concentration or dose not given here
- Sequence (P00746 26-253): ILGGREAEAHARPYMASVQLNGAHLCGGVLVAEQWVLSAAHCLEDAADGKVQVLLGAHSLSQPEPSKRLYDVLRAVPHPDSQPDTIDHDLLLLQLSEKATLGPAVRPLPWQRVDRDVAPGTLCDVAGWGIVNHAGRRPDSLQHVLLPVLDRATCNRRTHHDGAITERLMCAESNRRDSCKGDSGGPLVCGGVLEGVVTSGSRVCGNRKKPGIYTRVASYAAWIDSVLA
- EXPERIMENTAL PROTOCOL: cell-based or functional assay
MEASURED ATTRIBUTE: CFD Enzymatic activity (% of Neg Ctrl)

Worked examples, 3 binders total:
# BINDER, REPORTED MEASUREMENT
records = [
    ("KCD002 (antibody, V domains shown, chimeric) VH: EVKLVESEGGLVQPGSSMKLSCTASGFTFSDYYMAWVRQVPEKGLEWVGNINYDGSSTYYLDSLKSRFIISRDSAKNILYLQMSSLKSEDTATYFCARGEDFYLYAMDYWGQGTSVTVSS VL: DIQMTQSPASLSASVGETVTITCRASENIHSYLAWYQQKQGKSPQLIVYNTKTLAEGVPSRFSGSGSGTQFSLKINSLQPEDFGSYYCQHHYGIPPTFGGGTKLEIK", "144 % of Neg Ctrl"),
    ("KCD103 (antibody, V domains shown, chimeric) VH: QVQLQQPGAELVRPGTSVKLSCKASGYTFTSYWMHWVKQRPGQGLEWIGVIDPSDSYTKYNQKFKDKATLTVETSSSTAYMQLSSLTSEDSAVYYCAGNGYDGSMDYWGQGTSVTVSS VL: DIQMTQTTSSLSASLGDRVTISCRASQDISNSLNWYQQKPDGTVKLLIYYTSRLHSRVPSRFSGSGSGTDYSLTISNLDQEDIATYFCQQANTLPYTFGGGTKLEIK", "126 % of Neg Ctrl"),
    ("KCD101 (antibody, V domains shown, chimeric) VH: QVQLQQPGAELVRPGTSVKLSCKASGYTFTSYWMHWVKQRPGQGLEWIGVIDPSDSYTNYNQKFKGKATLTVDTSSSTAYMQLSSLTSEDSAVYYCGRNGYDGSMDYWGQGTSVTVSS VL: DIQMTQTTSSLSASLGDRVTISCRASQDISNYLNWYQQKPDGTVKLLIYYPSRLHSGVPSRFSGSGSGTDYSLTISNLEQEDFATYFCQQGNTLPYTFGGGTKLEIK", "93.2 % of Neg Ctrl"),
]

Continue with the binder presented below.
*Q* I have this binder here, KCD104 (antibody, V domains shown, chimeric) VH: QVQLQQPGAELVRPGTSVKLSCKASGYTFTSYWMHWVKQRPGQGLEWIGVIDPSDSYTYYNQKFKGKATLTVDTSSSTAYMQLSSLTSEDSAVYYCARNGYDGAMDYWGQGTSVTVSS VL: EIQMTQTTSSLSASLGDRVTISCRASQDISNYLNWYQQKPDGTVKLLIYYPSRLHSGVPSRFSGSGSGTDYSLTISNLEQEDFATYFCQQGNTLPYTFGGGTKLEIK , and I need its recorded CFD Enzymatic activity (% of Neg Ctrl).
*A* 92.3 % of Neg Ctrl
